method summary: Half life after orally administered dose of 10 mgkg in rats
Format: ADME, organism-based
Design: dose 10 mgkg, route oral
run conditions: rat, in vivo, po, 10 mg/kg
recorded metric: half-life (min)

(a) O=C(O)CCC(CCCSSCCCC(CCC(=O)O)C(=O)O)C(=O)O (configuration not stated)
(b) O=C(O)CCC(CCCS)C(=O)O (configuration not stated)
QUERY: Choose between a and b : whose measured half-life value is numerically larger? # reply format: chosen label
RESULT: a

---

pIC50: −log10 of the molar value.
Reported pIC50 for target or system Glutamate carboxypeptidase 2 (Homo sapiens), by entry.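 Also: inhibition of binding of tritium-labelled N-acetyl-L-aspartyl-L-glutamate to the enzyme.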
recorded metric: pIC50

Below are worked cases with known answers.
O=C(O)CCCCS    5.85
O=C(O)CCC(S)C(=O)O (configuration not stated)    5.59
O=C(O)CCC(C(=O)O)P(=O)(O)O (configuration not stated)    5.85
O=C(O)CCC(CCCCS)C(=O)O (configuration not stated)    5.96

(a) O=C(O)CCC(CS)C(=O)O (configuration not stated)
(b) O=C(O)CCC(CCS)C(=O)O (configuration not stated)
(c) O=C(O)CCC(CCCCCS)C(=O)O (configuration not stated)
QUERY: Rank ascending by pIC50. # answer = labels listed in requested order
RESULT: a, c, b
(a: 5.22, c: 5.59, b: 6.24)

---

method summary: Pharmacokinetic constant(Tmax) after orally administered dose of 10 mgkg in rats
Format: ADME, organism-based
Design: dose 10 mgkg, route oral
run conditions: rat, in vivo, po, 10 mg/kg
recorded metric: Tmax (min)

(a) O=C(O)CCC(CCCSSCCCC(CCC(=O)O)C(=O)O)C(=O)O (configuration not stated)
(b) O=C(O)CCC(CCCS)C(=O)O (configuration not stated)
QUERY: Of a and b , which shows the smaller Tmax value? # reply format: chosen label
RESULT: b

---

method summary: Plasma concentration was determined after orally administered dose of 10 mgkg in rats
Assay type: ADME, organism-based
Set-up: dose 10 mgkg, route oral
run conditions: rat, po, 10 mg/kg
recorded metric: Cmax (ng/mL)

(A) O=C(O)CCC(CCCS)C(=O)O (configuration not stated)
(B) O=C(O)CCC(CCCSSCCCC(CCC(=O)O)C(=O)O)C(=O)O (configuration not stated)
QUERY: Choose between A and B : whose measured Cmax value is numerically larger? # reply format: chosen label
RESULT: A
(A: 2230 ng/mL, B: 44 ng/mL)

---

method summary: Half life after intravenously administered dose of 10 mgkg in rats
Format: ADME, organism-based
Set-up: dose 10 mgkg, route intravenous
run conditions: rat, in vivo, iv, 10 mg/kg
recorded metric: half-life (min)

(1) O=C(O)CCC(CCCS)C(=O)O (configuration not stated)
(2) O=C(O)CCC(CCCSSCCCC(CCC(=O)O)C(=O)O)C(=O)O (configuration not stated)
QUERY: Of 1 and 2 , which shows the smaller half-life value? # reply format: chosen label
RESULT: 2
